The following molecules are listed with their measured CC50 at 72 h values.
assay: Cytotoxicity against MDCK cells after 72 hrs by XTT assay; type: cell-based, Canis lupus familiaris; conditions: dog
Give the number; µM is assumed, so skip it.

### Prompt Using the record for CCOC(=O)C1=C[C@@H](OC(CC)CC)[C@H](NC(C)=O)[C@@H](N)C1 [OSELTAMIVIR] , report its CC50 at 72 h.
### Response 321

### Prompt Quick one: CC50 at 72 h for "CCOC(=O)c1cn(CC)c2ccc(-n3cc(C4=CCCCC4)nn3)cc2c1=O" ?
### Response 566

Reference source for all entries: ChEMBL document CHEMBL3739372
